- Tested on: SF-295 CNS
- Protocol summary: NCI-60 one-dose screen, 48 h
- Test parameters: 10 µM unless noted
This is part of a sample that, as a whole, favours compounds with a hit. Of some 83,000 tested, about 20% had one in any assay. The source made the active and inactive calls. Rule for the calls: active = growth percent below 10; inactive = the rest.
Just give me one of these, please: active, inactive

{"Smiles code": "O=S(=O)(Nc1ccc2c(c1)OCO2)c1ccc(-c2cnc(C3CC3)o2)cc1", "Group": "active"}
{"Smiles code": "CCOC(=O)c1c(Nc2ccccc2)nn2c(-c3ccccc3)ccnc12", "Group": "inactive"}
{"Smiles code": "Cc1ccc(N2C(=O)/C(=C/C=C/c3ccco3)SC2=S)cc1", "Group": "inactive"}
{"Smiles code": "C=C1CC[C@@H]2[C@](C)(CO)[C@H](O)CC[C@@]2(C)[C@@H]1C/C(O)=C1\\CCOC1=O", "Group": "inactive"}
{"Smiles code": "COc1ccc(/C(N)=N/C(N)=N/c2nc3ccccc3s2)cc1", "Group": "inactive"}
{"Smiles code": "C=CC(=O)N1CCC=C(c2cc3c(N[C@H](C)c4ccccc4)ncnc3[nH]2)C1", "Group": "inactive"}

Test call, this molecule: `COc1ccc([C@H]2[C@H](O)C(=O)N2c2cc(OC)c(OC)c(OC)c2)cc1F`
active

Test call for this molecule, please: `COc1ccc2c(c1)c(CC(=O)[Se]CC(=O)O)c(C)n2C(=O)c1ccc(Cl)cc1`
inactive

* * *

- Test system: CCRF-CEM leukemia
- Protocol summary: NCI-60 one-dose screen, 48 h
- Test parameters: 10 µM unless noted
About 83,000 compounds went through this panel and 20% of them were active in at least one assay; those are over-represented in the sample as a whole. Active and inactive are the calls of the source. The calls were made as follows: active = growth percent below 10; inactive = the rest.
Return exactly one item of 1 (yes) = active, 0 (no) = inactive

Record excerpt, results attached:
{"Compound": "COC(=O)/C=C/c1c(C2(C)NC(=O)c3ccccc3N2)c(=O)oc2ccc(Cl)cc12 (configuration not stated)", "Group": "0 (no)"}
{"Compound": "NS(=O)(=O)c1ccc(-n2cc(CN3CCNCC3)nn2)cc1", "Group": "0 (no)"}
{"Compound": "N=c1c2cc(-c3ccccc3)oc2ncn1/N=C/c1ccc(Br)cc1", "Group": "0 (no)"}

Given `CNC(=O)c1cc(Oc2ccc3nc(NC(=O)c4cccc(OC(F)(F)F)c4)sc3c2)ccn1` , state the outcome it received in this test.
0 (no)

What classification did `CN1CCN(Cc2ccc(NC(=O)c3cncc(C#Cc4cnn5cccnc45)c3)cc2C(F)(F)F)CC1` end up with in this test?
1 (yes)

Tell me the recorded outcome of this test for CCOC(=O)C1=NNC(c2ccc(Cl)cc2)C1C(=O)N1C(=S)NC(=O)C1CC(C)C (configuration not stated) .
0 (no)

* * *

- Test system: NCI/ADR-RES ovarian
- Protocol summary: NCI-60 one-dose screen, 48 h (100 = growth as untreated, 0 = no growth, -100 = all killed)
- Test parameters: 10 µM unless noted
This is part of a sample that, as a whole, favours compounds with a hit. Of some 83,000 tested, about 20% had one in any assay.
Metric name: growth (%)
Numbers only, in %.

Worked set:
{"Compound": "Nc1nc(-c2cccc([N+](=O)[O-])c2)c(N=Nc2ccc(Br)cc2)s1", "Recorded result": -21.7}
{"Compound": "O=C1Nc2ccccc2/C1=C/c1ccc(CO)n1-c1ccc(Cl)cc1", "Recorded result": 33.9}
{"Compound": "Cc1ccc2sc3c(c2c1)OC(N)=C(C#N)C3c1cccc(F)c1 (stereo unspecified)", "Recorded result": 5.79}
{"Compound": "COc1ccc(C(=O)c2c(N)c(C#N)cn2-c2ccccc2OC)cc1", "Recorded result": 13.5}
{"Compound": "Nn1c(N/N=C/c2nc3ccccc3s2)n[nH]c1=S", "Recorded result": 118}

Items follow; give growth for each.
1. Oc1[nH]c2ccccc2c1Nn1c(N=N/C=c2/ccc3c(c2)C=NN=3)n[nH]c1=S
2. C[C@@H]1C[C@H]2C(=O)O[C@@H](C)C(NC(=O)[C@H](Cc3cc(F)cc(F)c3)NC(=O)Nc3ccc(Cl)cc3F)C(=O)N3CCC[C@H]3C(=O)N3CCCC[C@H]3C(=O)N[C@@H](CO)C(=O)N2C1 (stereo partly specified)
3. Cc1nn(-c2ccccc2)c2ncnc(N/N=C/c3ccccc3)c12
4. Cc1cc2ncc(-c3cc4ccccc4c(N4CCN(C)CC4)n3)nc2cc1C
5. Cc1ccc(C2=Nn3c(nnc3-c3ccccc3)SC2)cc1
6. NC(N)=Nc1ccc(Oc2cccc(Nc3ccc(Br)c(C(F)(F)F)c3)c2)cc1

1. 112
2. 47.5
3. 93
4. 40.2
5. 14.1
6. 93.7

// for each compound in input: emit growth
1. N/C(=N\C(N)=N\c1nc2ccccc2s1)c1ccncc1Cl
2. O=C(NNc1nc2cc(F)ccc2n2c(CN3CC4CNCC4C3)ccc12)c1cnccn1 (stereo unspecified)
3. COc1c(N2CC3CCCNC3C2)c(F)cc2c(=O)c(C(=O)N/N=C/c3ccc(F)cc3)cn(C3CC3)c12 (stereo unspecified)
4. O=C(CN1CCN(c2cc(=O)n(-c3ccccc3)c3ccccc23)CC1)Nc1nc(-c2ccc(Cl)cc2)cs1
5. COc1ccc(NCc2cn(-c3ccc(C(=O)O)cc3)nc2-c2cc(C(F)(F)F)cc(C(F)(F)F)c2)cc1
6. CC(=O)N(C)C1CCc2c(sc(NC(=O)c3ccc(C(C)(C)C)cc3)c2C(N)=O)C1 (stereo unspecified)

[25.2, 84.8, 89.4, 54.9, 96.8, 79.6]

* * *

- Test system: MOLT-4 leukemia
- Protocol summary: NCI-60 one-dose screen, 48 h
- Test parameters: 10 µM unless noted
The panel holds about 83,000 compounds, 20% with a hit somewhere; the sample as a whole holds those more often. The source made the active and inactive calls. How the source made its calls: active means growth percent below 10; inactive means the rest.
Bench note: report the call from active, inactive

Reference set (2 entries):
{"Smiles code": "NS(=O)(=O)c1ccc(Nc2nc(N/N=C/c3ccc(Cl)cc3)nc(Nc3ccccc3)n2)cc1", "Group": "active"}
{"Smiles code": "NS(=O)(=O)c1ccc(-n2cc(CN3CCNCC3)nn2)cc1", "Group": "inactive"}

Now take the following compound into account.
Could you kindly confirm the outcome this assay logged for `NC(N)=Nc1ccc(Oc2cccc(NC(N)=Nc3ccc(I)cc3F)c2)cn1` ?
inactive

* * *

- System: OVCAR-4 ovarian
- Protocol summary: NCI-60 one-dose screen, 48 h (100 = growth as untreated, 0 = no growth, -100 = all killed)
- Test parameters: 10 µM unless noted
About 83,000 compounds went through this panel and 20% of them were active in at least one assay; those are over-represented in the sample as a whole.
Metric name: growth (%)
Give bare numbers, in %.

Consider the following illustrative entries.
{"Compound": "CC(C)(C)CC(C)(C)n1nnnc1C(Nc1nccs1)c1cc2cccc3ccc4cccc1c4c32 (stereo unspecified)", "growth, %": 99.7}
{"Compound": "Nc1nc(Nc2ccccc2SSc2ccccc2Nc2nc(N)nc(-c3cccc(Br)c3)n2)nc(-c2cccc(Br)c2)n1", "growth, %": 73}
{"Compound": "NC/C(=C/F)COc1ccc2nc(NCc3cccnc3)oc2c1", "growth, %": 86.6}

For the 2 compounds below, give their growth values.
1. C/C(=N\O)[C@H]1C[C@]23CC[C@]4(C)[C@H](CC[C@@H]5[C@@]6(C)CC/C(=N/O)C(C)(C)[C@@H]6CC[C@]54C)[C@H]2[C@H](C)C1(C)OC3
2. COc1ccccc1-n1cc(C#N)c(N)c1C(=O)c1ccc(Br)cc1

[82.8, 96.8]

Look up and report measured growth for this entry: `C[C@@H](Nc1ncnc2ccc(-c3cnc(Cl)c(NS(C)(=O)=O)c3)cc12)c1ccccc1`
58.3

* * *

For each of the compounds below, state its growth.
- Test system: OVCAR-8 ovarian
- Protocol summary: NCI-60 one-dose screen, 48 h (100 = growth as untreated, 0 = no growth, -100 = all killed)
- Test parameters: 10 µM unless noted
This is part of a sample that, as a whole, favours compounds with a hit. Of some 83,000 tested, about 20% had one in any assay.
Give bare numbers, in %.

Known results for compounds:
{"Compound": "c1n[nH]cc1-c1nc2ccc3[nH]ncc3c2c2c1CCCC2", "growth [%]": 23.5}
{"Compound": "COc1cc2nc(Cl)nc(Nc3cccc(C4=Nc5c(N)nc(N)nc5NC(c5ccccc5)C4)c3)c2cc1OC (stereo not given)", "growth [%]": 67.2}
{"Compound": "CCCCCc1ccc(S(=O)(=O)Nc2cc(-c3csc(NC(=O)CN4CCN(CCO)CC4)n3)ccc2OC)cc1", "growth [%]": 82.1}

Provide the reported growth of each entry below, same order.
1. CC(=O)Nc1cccc(Nc2nc(N[C@H](C)c3ccccc3)c3ccccc3n2)c1
2. Nc1ncc(-c2ccc3ncnc(N4CCc5cc(F)c(Cl)cc54)c3c2)cn1
3. CC/C(=C/c1cc(OC)ccc1O)c1ccc2cc(OC)ccc2[o+]1
4. O=C(CCn1cc[n+](CC(=O)c2ccc(-c3ccccc3)cc2)c1)Nc1cccc2cccnc12
5. Cc1ccc(NC(=O)N[C@@H](Cc2cc(F)cc(F)c2)C(=O)NC2C(=O)N3C[C@H](O)C[C@H]3C(=O)N3CCCC[C@H]3C(=O)N[C@@H](CO)C(=O)N3C[C@H](C)C[C@H]3C(=O)O[C@H]2C)c(F)c1 (stereo not given in full)
6. Cn1ccnc1C(=O)/C=C/C=C/c1ccc(C(=O)Nc2ccc(F)cc2)cc1
7. O=C1[C@H]2Cc3c([nH]c4ccccc34)[C@@H](c3ccc(Cl)cc3)N2C(=O)CN1C1CCN(Cc2ccccc2)CC1

1: 74.8; 2: 33.5; 3: 87.1; 4: 82.4; 5: 44.1; 6: 13.6; 7: 72.7
